# System: primary human embryonic fibroblasts
# assay.text: Cell viability assay (7AAD, 48 hours), normal fibroblasts
# Format: cell-based
# experimental.conditions: Fibroblast, 48 hours exposure, read-out: Normal cell lines IC50 (μM) Fibroblasts
Where a SMILES comes first, the peptide text is derived from it. The star is where a group is joined. Cbz = O=C(OCc1ccccc1)*
readout.name: log10 of IC50 (log10 of the value in µM)
A difference of one corresponds to tenfold IC50; all values are log10 with IC50 in µM.

In the examples that follow, each entry is paired with its recorded log10 of IC50.
1) C#CCOc1ccc(C[C@@H](C=O)NC(=O)[C@@H](NC(=O)[C@H](CCCCN=[N+]=[N-])NC(=O)OCc2ccccc2)[C@@H](C)CC)cc1 [Compound 5] : 1.30
2) C#CCOc1ccc(C[C@@H](C=O)NC(=O)[C@H](CC(C)C)NC(=O)[C@H](Cc2ccc(N=[N+]=[N-])cc2)NC(=O)OCc2ccccc2)cc1 [Compound 6] : 1.66
3) C#CCOc1ccc(C[C@@H](C=O)NC(=O)[C@H](CC(C)C)NC(=O)[C@H](CN=[N+]=[N-])NC(=O)OCc2ccccc2)cc1 [Compound 1] : 1.09
4) C#CCOc1ccc(C[C@@H](C=O)NC(=O)[C@H](CC(C)C)NC(=O)[C@H](CCCN=[N+]=[N-])NC(=O)OCc2ccccc2)cc1 [Compound 3] : 0.94
5) CC(C)C[C@H](NC(=O)[C@H](Cc1ccccc1)NC(=O)c1cnccn1)B(O)O [Bortezomib, reference compound] : -1.70

## Input // query log10 of IC50 value for entry C#CCOc1ccc(C[C@@H](C=O)NC(=O)[C@H](CC(C)C)NC(=O)[C@H](CCN=[N+]=[N-])NC(=O)OCc2ccccc2)cc1 [Compound 2]
## Output 1.47

## Input // query log10 of IC50 value for entry C#CCOc1ccc(C[C@@H](C=O)NC(=O)[C@H](CC(C)C)NC(=O)[C@H](CCCCN=[N+]=[N-])NC(=O)OCc2ccccc2)cc1 [Compound 4]
## Output 1.60

## Input // query log10 of IC50 value for entry CC(C)C[C@@H](C=O)NC(=O)[C@H](CC(C)C)NC(=O)[C@H](CC(C)C)NC(=O)OCc1ccccc1 [MG132, reference compound] (Cbz-Leu-Leu-Leu-aldehyde)
## Output 0.45

###

# test.system: 20S proteasome T-L activity (Oryctolagus cuniculus, UniProt G1SWK8)
# Construct: purchased Boston Biochem
# Sequence (G1SWK8 1-271): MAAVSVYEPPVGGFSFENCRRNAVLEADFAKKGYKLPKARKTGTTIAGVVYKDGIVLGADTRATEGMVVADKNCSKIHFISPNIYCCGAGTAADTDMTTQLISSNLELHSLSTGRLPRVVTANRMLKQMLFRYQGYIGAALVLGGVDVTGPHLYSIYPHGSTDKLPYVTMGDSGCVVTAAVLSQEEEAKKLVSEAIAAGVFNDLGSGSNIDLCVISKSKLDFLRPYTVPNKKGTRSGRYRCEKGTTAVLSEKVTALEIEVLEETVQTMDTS
# assay.text: In vitro proteasome activity assay, T-L (Ac-RLR-AMC)
# Format: biochemical, rabbit
# experimental.conditions: purified 20S proteasome; highest concentration tested 25,000 nM
# Protocol: The assays were performed in vitro using purified 20S proteasome/inhibitor mixtures, with the activity of each subunit of the proteasome assessed upon incubation with its respective target peptide. Purified rabbit 20S proteasome and fluorogenic CT-L substrate (Suc-LLVY-AMC) were purchased from Boston Biochem (Cambridge, Mass., USA). The T-L and CP-L fluorogenic substrates (Ac-RLR-AMC and Z-nLPnLD-AMC) were purchased from Enzo Life Sciences (Farmingdale, N.Y., USA). […]
Where a SMILES comes first, the peptide text is derived from it. The star is where a group is joined. Cbz = O=C(OCc1ccccc1)*
In this section, each of the compounds is paired with its reported IC50.

In the examples that follow, each entry is paired with its recorded IC50.
1) C#CCOc1ccc(C[C@@H](C=O)NC(=O)[C@H](CC(C)C)NC(=O)[C@H](CCN=[N+]=[N-])NC(=O)OCc2ccccc2)cc1 : > 25000 nM
2) CC(C)C[C@H](NC(=O)[C@H](Cc1ccccc1)NC(=O)c1cnccn1)B(O)O [Bortezomib, reference compound] : > 25000 nM
3) C#CCOc1ccc(C[C@@H](C=O)NC(=O)[C@H](CC(C)C)NC(=O)[C@H](Cc2ccc(N=[N+]=[N-])cc2)NC(=O)OCc2ccccc2)cc1 : > 25000 nM
4) CC(C)C[C@@H](C=O)NC(=O)[C@H](CC(C)C)NC(=O)[C@H](CC(C)C)NC(=O)OCc1ccccc1 [MG132, reference compound] (Cbz-Leu-Leu-Leu-aldehyde) : 2000 nM
5) C#CCOc1ccc(C[C@@H](C=O)NC(=O)[C@H](CC(C)C)NC(=O)[C@H](CCCN=[N+]=[N-])NC(=O)OCc2ccccc2)cc1 : > 25000 nM

## Input Form field - read-out: IC50; system: 20S proteasome T-L activity (Oryctolagus cuniculus, UniProt G1SWK8); submitted item: C#CCOc1ccc(C[C@@H](C=O)NC(=O)[C@H](CC(C)C)NC(=O)[C@H](CCCCN=[N+]=[N-])NC(=O)OCc2ccccc2)cc1
## Output > 25000 nM

###

# Test system: WE-68 Ewing's sarcoma cells
# assay.text: Cell viability assay (7AAD, 48 hours), WE-68
# Assay type: cell-based
# experimental.conditions: 48 hours exposure; read-out: Cancer cell lines IC50 (μM) WE-68
# Description: Cell viability assays were performed as previously described. Briefly, cells were seeded in 96 well microtiterplates at a density of 3×10^4 cells per well in the presence of the indicated chemical. […] Viable cells were determined with the use of a FACS Calibur flow cytometer (Becton Dickinson Immunocytometry Systems), and analyzed with the use of FLOWJO (Tree Star, Inc) and GraphPad Prism (GraphPad Software Inc). […]
readout.name: IC50 (µM)
Kindly answer with a numeric value in µM, unit omitted.

In the examples that follow, each entry is paired with its recorded IC50.
1. C#CCOc1ccc(C[C@@H](C=O)NC(=O)[C@H](CC(C)C)NC(=O)[C@H](CCCCN=[N+]=[N-])NC(=O)OCc2ccccc2)cc1 : 10.8
2. C#CCOc1ccc(C[C@@H](C=O)NC(=O)[C@H](CC(C)C)NC(=O)[C@H](CN=[N+]=[N-])NC(=O)OCc2ccccc2)cc1 : 4.5

Now consider the entry below.
## Input // query IC50 value for entry C#CCOc1ccc(C[C@@H](C=O)NC(=O)[C@H](CC(C)C)NC(=O)[C@H](CCN=[N+]=[N-])NC(=O)OCc2ccccc2)cc1
## Output 4.7

###

In this section, each of the compounds is paired with its reported log10(IC50).
# test.system: 20S proteasome chymotrypsin-like (CT-L) activity (Oryctolagus cuniculus)
# Sequence (G1T4Q9 1-263): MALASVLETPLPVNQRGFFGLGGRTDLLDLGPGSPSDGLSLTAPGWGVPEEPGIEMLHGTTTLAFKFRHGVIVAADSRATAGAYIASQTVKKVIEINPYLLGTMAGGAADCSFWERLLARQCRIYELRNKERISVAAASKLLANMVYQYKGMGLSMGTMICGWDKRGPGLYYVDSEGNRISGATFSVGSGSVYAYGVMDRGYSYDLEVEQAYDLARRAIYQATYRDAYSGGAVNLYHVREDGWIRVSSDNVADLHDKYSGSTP
# assay.text: In vitro proteasome activity assay, CT-L (Suc-LLVY-AMC)
# Type: biochemical, rabbit
# experimental.conditions: purified 20S proteasome
Where a SMILES comes first, the peptide text is derived from it. The star is where a group is joined. Cbz = O=C(OCc1ccccc1)*
A difference of one corresponds to tenfold IC50; all values are log10 with IC50 in nM.

In the examples that follow, each entry is paired with its recorded log10(IC50).
1. C#CCOc1ccc(C[C@@H](C=O)NC(=O)[C@@H](NC(=O)[C@H](CCCCN=[N+]=[N-])NC(=O)OCc2ccccc2)[C@@H](C)CC)cc1 : 1.32
2. C#CCOc1ccc(C[C@@H](C=O)NC(=O)[C@H](CC(C)C)NC(=O)[C@H](CCCCN=[N+]=[N-])NC(=O)OCc2ccccc2)cc1 : 2.18
3. C#CCOc1ccc(C[C@@H](C=O)NC(=O)[C@H](CC(C)C)NC(=O)[C@H](Cc2ccc(N=[N+]=[N-])cc2)NC(=O)OCc2ccccc2)cc1 : 1.36

## Input // query log10(IC50) value for entry C#CCOc1ccc(C[C@@H](C=O)NC(=O)[C@H](CC(C)C)NC(=O)[C@H](CN=[N+]=[N-])NC(=O)OCc2ccccc2)cc1
## Output 1.53

## Input // query log10(IC50) value for entry CC(C)C[C@@H](C=O)NC(=O)[C@H](CC(C)C)NC(=O)[C@H](CC(C)C)NC(=O)OCc1ccccc1 [MG132, reference compound] (Cbz-Leu-Leu-Leu-aldehyde)
## Output 0.08

## Input // query log10(IC50) value for entry C#CCOc1ccc(C[C@@H](C=O)NC(=O)[C@H](CC(C)C)NC(=O)[C@H](CCCN=[N+]=[N-])NC(=O)OCc2ccccc2)cc1
## Output 1.73

## Input // query log10(IC50) value for entry C#CCOc1ccc(C[C@@H](C=O)NC(=O)[C@H](CC(C)C)NC(=O)[C@H](CCN=[N+]=[N-])NC(=O)OCc2ccccc2)cc1
## Output 2.55

## Input // query log10(IC50) value for entry CC(C)CC1NC(=O)C(NC(=O)OCc2ccccc2)CCCCn2cc(nn2)COc2ccc(cc2)CC(C=O)NC1=O (centres unmarked)
## Output 2.40
